System: HeLa
Experiment: Response of tumor cell lines to erastin (dose-response)
Type: cell-based
Conditions: Homo sapiens
OBSERVATION_TYPE: EC50 (nM)
# number only, unit nM dropped from output

Lab note: CCOc1ccccc1-n1c(C(C)N2CCN(C(=O)COc3ccc(Cl)cc3)CC2)nc2ccccc2c1=O (stereo not shown) [erastin] gave EC50 of 600

---

System: TC32
Test: Response of tumor cell lines to erastin (dose-response)
Type: cell-based
Conditions: Homo sapiens, TC-32; TC32
OBSERVATION_TYPE: EC50 (µM)
# number only, unit µM dropped from output

Lab note: CCOc1ccccc1-n1c(C(C)N2CCN(C(=O)COc3ccc(Cl)cc3)CC2)nc2ccccc2c1=O (stereo not shown) gave EC50 of 8
